B1: FAM50A (parent)
chain: KKREKQREQMEQMKQRIAEENIMK

Variants of: B1
Assay: protein stability index of a GFP-peptide fusion (GPS, HEK-293T) (PSI 1-6); higher = more stable;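 further: lentivirally expressed fusions sorted by FACS into six bins by GFP to DsRed ratio, PSI derived from sequencing read proportions per bin multiplied by bin number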
Conditions: c terminus: a fixed tail appended
Record Y whenever protein stability index is at 5 or higher; record N when lower.

Input line: Could you please find out whether N21G has protein stability index that meets 5 or exceeds it?
Output line: N

Input line: Tell me whether protein stability index is at least 5 here: R7T
Output line: N

Input line: Would you say K1P shows protein stability index at minimum 5?
Output line: Y

Input line: Does the reported protein stability index for M13F fall at or above the 5 mark?
Output line: N

Input line: Given I22S , state whether its protein stability index is at least 5.
Output line: Y

Input line: Quick check: does Q15H have protein stability index greater than or equal to 5?
Output line: N

Input line: Would you say R3Q shows protein stability index at minimum 5?
Output line: Y

Input line: Quick check: does E11M have protein stability index greater than or equal to 5?
Output line: N

Input line: Answer whether protein stability index of E8G is greater than or equal to 5.
Output line: N

Input line: Record R7E ; criterion: protein stability index no lower than 5. Met?
Output line: Y

Input line: Decide: is the reported value of protein stability index for M13E equal to or greater than 5?
Output line: Y

Input line: Form field: protein stability index at least 5? Entry: E20K
Output line: N

Input line: Is reported protein stability index greater than or equal to 5 here: A18C
Output line: N

Input line: Hello, I need to know if K5Q has measured protein stability index not below 5. Thanks!
Output line: N

Input line: Could you tell me if the measured protein stability index of K14C reaches 5 or more?
Output line: N

Input line: Does A18S have a reported protein stability index of at least 5?
Output line: N

Input line: Please check the record A18G and state if its protein stability index is at or above 5.
Output line: N

Input line: In plain terms: is recorded protein stability index at least 5 for E4C ?
Output line: N

Input line: // inclusive: protein stability index at least 5? input: E4P
Output line: N

Input line: Say whether I17Q shows protein stability index of 5 or more.
Output line: Y

Input line: Does protein stability index meet or surpass 5 for Q15V ?
Output line: N

Input line: Determine whether measured protein stability index meets or exceeds 5 for N21Y
Output line: N

Input line: For this variant, is measured protein stability index 5 or higher? I22W
Output line: N

Input line: // inclusive: protein stability index at least 5? input: Q12F
Output line: N

Input line: Does protein stability index meet or surpass 5 for R7M ?
Output line: N

Input line: Form field: protein stability index at least 5? Entry: Q6F
Output line: N

Input line: Quick check: does K1V have protein stability index greater than or equal to 5?
Output line: N

Input line: Please check the record K14P and state if its protein stability index is at or above 5.
Output line: Y

Input line: Item R3Y with protein stability index of 5 or above?
Output line: N

Input line: Is reported protein stability index greater than or equal to 5 here: I22A
Output line: N

Input line: Textbook exercise: given the entry E11P , state whether its protein stability index is greater than or equal to 5.
Output line: N

Input line: Does the variant A18R have recorded protein stability index that is 5 or more?
Output line: N

Input line: Assess whether reported protein stability index for K14T sits at 5 or higher.
Output line: N

Input line: Answer whether protein stability index of A18I is greater than or equal to 5.
Output line: N

Input line: Evaluate E20D : protein stability index at minimum 5?
Output line: N

Input line: Entry Q12G : is its protein stability index no less than 5?
Output line: N

Input line: Does protein stability index meet or surpass 5 for K24W ?
Output line: N

Input line: Hello, I need to know if A18F has measured protein stability index not below 5. Thanks!
Output line: N

Input line: Is protein stability index for E11L at or above 5?
Output line: N

Input line: Item M13W with protein stability index of 5 or above?
Output line: N

Input line: Could you tell me if the measured protein stability index of Q9C reaches 5 or more?
Output line: N

Input line: Reported protein stability index reaches at least 5 for E8R ?
Output line: N

Input line: Check this variant for protein stability index at or above 5: E19Q
Output line: N

Input line: Given Q15K , state whether its protein stability index is at least 5.
Output line: N

Input line: Decide: is the reported value of protein stability index for Q9V equal to or greater than 5?
Output line: N

Input line: Answer whether protein stability index of M10H is greater than or equal to 5.
Output line: Y
